- System: HCT-15 colon
- Protocol details: NCI tumour cell line growth inhibition, 48 h; in the data active = GI50 below about 0.43 µM; inactive = the rest
Outcome codes: active, inactive

Compound: COC[C@H]1Cn2cc(-c3nc(Nc4ccnn4C)ncc3C)nc2C(=O)N1Cc1ccc(F)c(F)c1
Qualitative label: inactive
//
Compound: CCCOc1cc2ccccc2cc1C(=O)Nc1nc(N)c2c(ccc3nccc32)[nH]1
Qualitative label: active
//
Compound: CCCCCCCCCCn1cc[n+](C)c1
Qualitative label: inactive
//
Compound: Nc1ccc(C2=NNC(=O)Cc3cc4c(cc32)OCCO4)cc1Cl
Qualitative label: inactive
//
Compound: COc1cc(-c2ccc3cc(OC)c(OC)c(OC)c3c2)cc(OC)c1OC
Qualitative label: inactive
//
Compound: Cc1csc(-c2nnc(Nc3ccc(Oc4ncccc4-c4ccnc(N)n4)cc3)c3ccccc23)c1
Qualitative label: inactive
//
Compound: Cc1cc(I)cc(CN(CCCN(C)C)C(C)C)c1O
Qualitative label: inactive
//
Compound: CCN(C(=O)N1CCN(c2cc3c(cc2F)c(=O)c(C(=O)O)cn3C2CC2)CC1)c1nc(-c2ccc(Cl)cc2)cs1
Qualitative label: inactive
//
Compound: COc1ccc(CCN=C2NC(=O)/C(=C/c3ccc4ncccc4c3)S2)cc1
Qualitative label: inactive
//
Compound: CN(C)c1cc(NN=C(c2ccc(O)cc2)c2ccc(O)cc2)c([N+](=O)[O-])cc1[N+](=O)[O-]
Qualitative label: inactive
//
Compound: Nc1n[nH]c2cc(F)c([C@@H]3Nc4ccc5[nH]ncc5c4[C@H]4C5CCC(C5)[C@@H]34)cc12 (stereo not given in full)
Qualitative label: active
//
Compound: O=C(/C(=C/c1ccc([N+](=O)[O-])cc1)SCc1ccccc1)c1ccc(Cl)cc1
Qualitative label: inactive
//
Compound: CCN(Cc1ccc(F)cc1)c1cc(Cl)c(CO)c(Cl)c1
Qualitative label: inactive
//
Compound: CCOC(=O)C1=C(C)N(c2ccc(F)cc2F)[C@]2(C#N)C(O)=C(Cl)C(Cl)=C(O)[C@]12C#N
Qualitative label: inactive
//
Compound: CC1SC(c2ccc(F)cc2)N(NC(=O)C(O)c2ccccc2)C1=O (stereo not given)
Qualitative label: inactive
